TARGET_UNDER_TEST: LSD1 (Homo sapiens (Human), UniProt O60341)
TEST_NAME: TR-FRET assay for LSD1 (Perkin Elmer)
Format: biochemical
MEASURED_QUANTITY: pIC50
In plain terms, pIC50 is the concentration in mol/L turned into minus its base-10 logarithm.

MOLECULE | TARGET_UNDER_TEST | pIC50
CN1C(=O)C(C)(C)c2cc([C@@H]3C[C@H]3NCC3CCN(CCCc4ccc(C(=O)NO)cc4)CC3)ccc21 [Compound 9] | LSD1 (Homo sapiens (Human), UniProt O60341) | 6.39
Nc1ccccc1NC(=O)c1ccc(Cn2cc(CN[C@@H]3C[C@H]3c3ccccc3)cn2)cc1 [Compound 30] | LSD1 (Homo sapiens (Human), UniProt O60341) | 7.57
O=C(NO)c1ccc(CCCN2CCC(CN[C@H]3C[C@@H]3c3ccc(-c4cncnc4)cc3)CC2)cc1 [Compound 8] | LSD1 (Homo sapiens (Human), UniProt O60341) | 8.10

Dear colleague, please send me the reported pIC50 for CN1C(=O)C(C)(C)c2cc([C@H]3C[C@@H]3NCC3CCN(CCCc4ccc(C(=O)NO)cc4)CC3)ccc21 [Compound 10] when you can.
5.92

====

Measured pIC50 values are reported for all entries that follow.
TARGET_UNDER_TEST: HDAC6 (Homo sapiens (Human), UniProt Q9UBN7)
Sequence (Q9UBN7 whole entry): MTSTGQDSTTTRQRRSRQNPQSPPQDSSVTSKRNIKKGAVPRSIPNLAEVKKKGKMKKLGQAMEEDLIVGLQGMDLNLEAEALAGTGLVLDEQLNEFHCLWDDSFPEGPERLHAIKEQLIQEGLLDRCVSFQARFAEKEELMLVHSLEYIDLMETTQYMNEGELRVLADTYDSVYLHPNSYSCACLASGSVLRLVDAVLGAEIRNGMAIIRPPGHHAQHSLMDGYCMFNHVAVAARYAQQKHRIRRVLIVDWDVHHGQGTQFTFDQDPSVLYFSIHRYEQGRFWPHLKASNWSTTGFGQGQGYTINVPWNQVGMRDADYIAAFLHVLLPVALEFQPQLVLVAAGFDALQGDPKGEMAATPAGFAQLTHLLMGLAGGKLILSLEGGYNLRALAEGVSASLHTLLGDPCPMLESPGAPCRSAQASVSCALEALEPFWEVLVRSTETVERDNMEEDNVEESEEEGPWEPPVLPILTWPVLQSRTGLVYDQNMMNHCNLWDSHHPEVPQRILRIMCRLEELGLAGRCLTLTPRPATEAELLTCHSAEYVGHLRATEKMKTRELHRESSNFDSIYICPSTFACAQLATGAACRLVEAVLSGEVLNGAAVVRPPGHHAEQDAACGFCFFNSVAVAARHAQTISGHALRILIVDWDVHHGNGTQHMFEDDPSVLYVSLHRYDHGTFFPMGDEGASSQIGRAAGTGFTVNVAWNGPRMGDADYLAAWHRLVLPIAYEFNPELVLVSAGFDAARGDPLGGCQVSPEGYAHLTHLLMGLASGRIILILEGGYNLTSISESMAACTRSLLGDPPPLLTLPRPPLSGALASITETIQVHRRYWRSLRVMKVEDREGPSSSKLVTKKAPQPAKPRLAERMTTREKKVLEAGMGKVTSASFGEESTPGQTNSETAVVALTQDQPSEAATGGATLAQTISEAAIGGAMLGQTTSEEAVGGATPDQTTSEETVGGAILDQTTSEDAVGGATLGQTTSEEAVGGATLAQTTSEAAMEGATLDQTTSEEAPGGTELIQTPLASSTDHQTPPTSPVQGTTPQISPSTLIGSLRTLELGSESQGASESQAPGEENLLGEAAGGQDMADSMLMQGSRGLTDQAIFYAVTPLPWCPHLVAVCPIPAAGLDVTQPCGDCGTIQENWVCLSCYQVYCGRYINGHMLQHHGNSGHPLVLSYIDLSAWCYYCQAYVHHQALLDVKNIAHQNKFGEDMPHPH
TEST_NAME: Histone deacetylase assay (BPS Biosciences), HDAC6
RUN_PARAMETERS: human recombinant enzyme
Scale note: pIC50 = -log10(concentration in M).

Solved entries:
CHEMICAL_STRING | pIC50
O=C(NO)c1ccc(CCCN2CCC(CN[C@@H]3C[C@H]3c3ccc(-c4cncnc4)cc3)CC2)cc1 | 6.82
O=C(NO)c1ccc(CCCN2CCC(CN[C@@H]3C[C@H]3c3cnn(-c4ccccc4)c3)CC2)cc1 | 7.06

Continue with the compound presented below.
Supply pIC50 value. Item: CN1C(=O)C(C)(C)c2cc([C@H]3C[C@@H]3NCC3CCN(CCCc4ccc(C(=O)NO)cc4)CC3)ccc21
6.87

====

TARGET_UNDER_TEST: LSD1 (Homo sapiens (Human), UniProt O60341)
Reported IC50 by item:
Your answer should be a plain number; it is taken to be in nM.

CHEMICAL_STRING | UNITS_OF_MEASURE | IC50
Nc1ccccc1NC(=O)c1ccc(Cn2cc(CN[C@@H]3C[C@H]3c3ccccc3)nn2)cc1 | nM | 671
CC(C)n1cc([C@@H]2C[C@H]2NCC2CCN(CCCc3ccc(C(=O)Nc4ccccc4N)cc3)CC2)cn1 | nM | 101
Nc1ccccc1NC(=O)c1ccc(Cn2cc(CN[C@H]3C[C@@H]3c3ccc(F)cc3)nn2)cc1 | nM | 854

Now consider the entry below.
Provide measured IC50 on LSD1 (Homo sapiens (Human), UniProt O60341) for O=C(NO)c1ccc(/C=C/C(=O)N2CC(CN[C@H]3C[C@@H]3c3ccc(F)cc3)C2)cc1 please.
147

====

TARGET_UNDER_TEST: HDAC1 (Homo sapiens (Human), UniProt Q13547)
Sequence (Q13547 whole entry): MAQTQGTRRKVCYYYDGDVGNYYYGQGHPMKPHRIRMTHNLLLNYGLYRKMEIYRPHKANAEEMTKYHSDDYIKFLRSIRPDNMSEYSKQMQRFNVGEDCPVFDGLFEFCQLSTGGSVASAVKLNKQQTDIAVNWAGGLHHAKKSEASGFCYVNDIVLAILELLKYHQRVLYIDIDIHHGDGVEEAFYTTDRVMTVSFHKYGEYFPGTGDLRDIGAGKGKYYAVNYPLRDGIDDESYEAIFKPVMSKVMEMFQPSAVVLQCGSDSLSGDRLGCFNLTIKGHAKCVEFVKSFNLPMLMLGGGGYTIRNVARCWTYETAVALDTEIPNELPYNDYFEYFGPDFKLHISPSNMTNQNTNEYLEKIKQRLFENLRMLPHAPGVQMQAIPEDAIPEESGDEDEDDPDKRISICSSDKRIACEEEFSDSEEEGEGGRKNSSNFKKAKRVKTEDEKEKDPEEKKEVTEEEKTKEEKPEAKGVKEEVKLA
TEST_NAME: Histone deacetylase assay (BPS Biosciences), HDAC1
RUN_PARAMETERS: human recombinant enzyme
pIC50: −log10 of the molar value.
Would you mind labelling by pIC50? At or over 6 is 1, under is -1.

Here's what some known entries look like.
MOLECULE | ASSIGNED_CATEGORY
O=C(NO)c1ccc(CCCN2CCC(CN[C@H]3C[C@@H]3c3ccc(-c4cncnc4)cc3)CC2)cc1 [Compound 8] | -1
O=C(NO)c1ccc(CCCN2CCC(CN[C@@H]3C[C@H]3c3ccc(-c4cncnc4)cc3)CC2)cc1 [Compound 7] | -1
CC(C)n1cc([C@H]2C[C@@H]2NCC2CCN(CCCc3ccc(C(=O)Nc4ccccc4N)cc3)CC2)cn1 [Compound 18] | -1
Nc1ccccc1NC(=O)c1ccc(Cn2cc(CN[C@@H]3C[C@H]3c3ccccc3)cn2)cc1 [Compound 30] | 1
O=C(NO)c1ccc(Cn2cc(CN[C@H]3C[C@@H]3c3ccccc3)cn2)cc1 [Compound 2] | -1
Nc1ccccc1NC(=O)c1ccc(CCCN2CCC(CN[C@@H]3C[C@H]3c3ccc(F)cc3)CC2)cc1 [Compound 15] | -1

Has Nc1ccccc1NC(=O)c1ccc(CCCN2CCC(CN[C@@H]3C[C@H]3c3cnn(-c4ccccc4)c3)CC2)cc1 [Compound 23] a recorded pIC50 greater than or equal to 6?
1

API: above_or_equal(metric=pIC50, cutoff=6) for item Nc1ccccc1NC(=O)c1ccc(CCCN2CCC(CN[C@H]3C[C@@H]3c3cnn(-c4ccccc4)c3)CC2)cc1 [Compound 24]
-1

Hi team, for Nc1ccccc1NC(=O)c1ccc(CCCN2CCC(CN[C@H]3C[C@@H]3c3ccc(F)cc3)CC2)cc1 [Compound 16] , is the recorded pIC50 at or above 6?
1

====

TARGET_UNDER_TEST: HDAC6 (Homo sapiens (Human))
TEST_NAME: Histone deacetylase assay (BPS Biosciences), HDAC6
RUN_PARAMETERS: human recombinant enzyme
MEASURED_QUANTITY: pIC50
Keep in mind that pIC50 stands for -log10 of concentration in molar terms.

COMPOUND | TARGET_UNDER_TEST | pIC50
O=C(NO)c1ccc(CCCN2CCC(CN[C@H]3C[C@@H]3c3ccc(-c4cncnc4)cc3)CC2)cc1 [Compound 8] | HDAC6 (Homo sapiens (Human)) | 6.80

Look up pIC50 of O=C(NO)c1ccc(/C=C/C(=O)N2CC(CN[C@H]3C[C@@H]3c3ccc(F)cc3)C2)cc1 [Compound 6] and report it.
6.84

Provide pIC50 value for the following compound: CN1C(=O)C(C)(C)c2cc([C@@H]3C[C@H]3NCC3CCN(CCCc4ccc(C(=O)NO)cc4)CC3)ccc21 [Compound 9]
6.72

For the compound O=C(NO)c1ccc(CCCN2CCC(CN[C@H]3C[C@@H]3c3cnn(-c4ccccc4)c3)CC2)cc1 [Compound 4] , give its measured pIC50 value.
7.14

Please look at this compound and report its pIC50: O=C(NO)c1ccc(/C=C/C(=O)N2CC(CN[C@@H]3C[C@H]3c3ccc(F)cc3)C2)cc1 [Compound 5]
7.08
